System: NCI-H2170
Experiment: relative viability (nuclei count vs DMSO), 5 days (fraction); higher = more cells survive
Conditions: first compound 8 µM
Assign relative viability to each entry below.
Format: numeric value only, no unit, no commentary.

Input: Determine its reported relative viability: O=c1cc(-c2cccc3c2Sc2ccccc2S3)oc(N2CCOCC2)c1 + Cc1nc(NC(=O)N2CCC[C@H]2C(N)=O)sc1-c1ccnc(C(C)(C)C(F)(F)F)c1 [Alpelisib] (partner 2 µM)
Output: 0.841

Input: Return the recorded relative viability value; entry: O=c1cc(-c2cccc3c2Sc2ccccc2S3)oc(N2CCOCC2)c1 + O=C(c1cc(Cc2n[nH]c(=O)c3ccccc23)ccc1F)N1CCN(C(=O)C2CC2)CC1 [Olaparib] (partner 8 µM)
Output: 0.617

Input: Please report relative viability for the following molecule: O=c1cc(-c2cccc3c2Sc2ccccc2S3)oc(N2CCOCC2)c1 + CS(=O)(=O)CCNCc1ccc(-c2ccc3ncnc(Nc4ccc(OCc5cccc(F)c5)c(Cl)c4)c3c2)o1 [Lapatinib] (partner 2 µM)
Output: 0.308

Input: Please look at this molecule and report its relative viability: O=c1cc(-c2cccc3c2Sc2ccccc2S3)oc(N2CCOCC2)c1 + CS(=O)(=O)N1CCN(Cc2cc3nc(-c4cccc5[nH]ncc45)nc(N4CCOCC4)c3s2)CC1 [Pictilisib] (partner 1 µM)
Output: 0.275

Input: Indicate the recorded relative viability value for this molecule: O=c1cc(-c2cccc3c2Sc2ccccc2S3)oc(N2CCOCC2)c1 + Nc1ncn([C@H]2C[C@H](O)[C@@H](CO)O2)c(=O)n1 [Decitabine] (partner 2 µM)
Output: 0.465

Input: Note relative viability for the molecule shown: O=c1cc(-c2cccc3c2Sc2ccccc2S3)oc(N2CCOCC2)c1 + Cc1nc(Nc2ncc(C(=O)Nc3c(C)cccc3Cl)s2)cc(N2CCN(CCO)CC2)n1 [Dasatinib] (partner 0.075 µM)
Output: 0.564
